Exercise: state measured A549 proliferation inhibitory action IC50 for each of the molecules provided.
Tested on: human non-small cell lung cancer A549 cells
EXPERIMENT_SUMMARY: Inhibitory action on the proliferation of A549 cells
Type: cell-based
EXPERIMENTAL_SETUP: 96 hours, TetraColor ONE
Numbers only, in ng/mL.

Before answering, review these 2 worked examples.
COc1cc2c3c(c4ccc(OC(=O)c5cccs5)cc4c2cc1OC)[C@H](O)[C@@H]1CCCN1C3.Cl
0.82
CCC(=O)Oc1ccc2c3c(c4cc(OC)c(OC)cc4c2c1)CN1CCC[C@H]1C3.CS(=O)(=O)O
0.78

Data request: A549 proliferation inhibitory action IC50 for `COC(=O)CCC(=O)Oc1ccc2c3c(c4cc(OC)c(OC)cc4c2c1)CN1CCC[C@H]1C3.Cl` ?
Data returned: 0.82

Origin of the recorded values: patent US8569327B2
